# Test system: HuH-7 cells
# Protocol notes: Anti-proliferation activity assay (CCK-8)
# Format: cell-based, human
# Test settings: 72 h
Reported property: IC50 (nM)
I only need the number, in nM, no unit after it.

Entry CNC(=O)c1ccccc1Nc1nc(Nc2ccc(N3CCN(CCCN)CC3)cc2)ncc1Cl , IC50 reported as 875

###

# System name: WEE1 kinase (Homo sapiens)
# Sequence (P30291 whole entry): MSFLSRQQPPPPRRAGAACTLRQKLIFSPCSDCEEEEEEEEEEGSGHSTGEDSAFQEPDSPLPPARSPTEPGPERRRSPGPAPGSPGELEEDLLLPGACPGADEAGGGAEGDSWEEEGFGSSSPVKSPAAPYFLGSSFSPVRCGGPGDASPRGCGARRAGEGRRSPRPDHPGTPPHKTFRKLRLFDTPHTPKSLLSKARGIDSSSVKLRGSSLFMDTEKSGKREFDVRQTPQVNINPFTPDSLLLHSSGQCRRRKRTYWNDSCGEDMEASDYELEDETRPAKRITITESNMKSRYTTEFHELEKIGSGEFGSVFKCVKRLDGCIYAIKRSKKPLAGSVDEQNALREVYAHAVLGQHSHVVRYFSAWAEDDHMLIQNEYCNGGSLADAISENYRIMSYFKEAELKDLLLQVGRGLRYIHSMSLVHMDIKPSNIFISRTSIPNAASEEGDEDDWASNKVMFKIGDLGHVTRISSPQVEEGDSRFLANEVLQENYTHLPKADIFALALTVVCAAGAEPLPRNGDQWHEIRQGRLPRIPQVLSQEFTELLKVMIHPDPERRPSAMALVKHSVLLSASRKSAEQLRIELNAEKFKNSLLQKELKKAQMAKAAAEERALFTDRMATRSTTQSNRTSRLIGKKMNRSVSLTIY
# Protocol notes: Inhibitory activity assay (ADP-Glo kinase assay)
# Type: biochemical
# Test settings: compound 25 μM; relative inhibition rate, Staurosporine (10 µM) as positive control
Could you please report measured Inhibition Rate for the items listed next?
I only need the number, in %, no unit after it.

Entry CNC(=O)c1ccccc1Nc1nc(Nc2ccc(N3CCN(CCCN)CC3)cc2)ncc1Cl , Inhibition Rate reported as 126.59

Entry CNC(=O)c1nn(C)c2c1C(C)(C)Cc1cnc(Nc3ccc(N4CCN(C)CC4)cc3)nc1-2 , Inhibition Rate reported as 137.84

Entry CNS(=O)(=O)c1ccccc1Nc1nc(Nc2ccc(N3CCN(C)CC3)cc2OC)ncc1Cl , Inhibition Rate reported as 127.17

Entry CCN1CCN(Cc2ccc(-c3cc4c(N[C@H](C)c5ccccc5)ncnc4[nH]3)cc2)CC1 , Inhibition Rate reported as 134.70

Entry CCN1CCN(C(=O)Cc2ccc(Nc3ncc(F)c(Nc4ccc(C(=O)Nc5ccccc5Cl)cc4)n3)cc2)CC1 , Inhibition Rate reported as 95.45
